Give measured Kd for each item. Keep answers brief.
- Assay system: FLT3 (Homo sapiens)
- Construct: made in house
- Sequence (P36888 27-993): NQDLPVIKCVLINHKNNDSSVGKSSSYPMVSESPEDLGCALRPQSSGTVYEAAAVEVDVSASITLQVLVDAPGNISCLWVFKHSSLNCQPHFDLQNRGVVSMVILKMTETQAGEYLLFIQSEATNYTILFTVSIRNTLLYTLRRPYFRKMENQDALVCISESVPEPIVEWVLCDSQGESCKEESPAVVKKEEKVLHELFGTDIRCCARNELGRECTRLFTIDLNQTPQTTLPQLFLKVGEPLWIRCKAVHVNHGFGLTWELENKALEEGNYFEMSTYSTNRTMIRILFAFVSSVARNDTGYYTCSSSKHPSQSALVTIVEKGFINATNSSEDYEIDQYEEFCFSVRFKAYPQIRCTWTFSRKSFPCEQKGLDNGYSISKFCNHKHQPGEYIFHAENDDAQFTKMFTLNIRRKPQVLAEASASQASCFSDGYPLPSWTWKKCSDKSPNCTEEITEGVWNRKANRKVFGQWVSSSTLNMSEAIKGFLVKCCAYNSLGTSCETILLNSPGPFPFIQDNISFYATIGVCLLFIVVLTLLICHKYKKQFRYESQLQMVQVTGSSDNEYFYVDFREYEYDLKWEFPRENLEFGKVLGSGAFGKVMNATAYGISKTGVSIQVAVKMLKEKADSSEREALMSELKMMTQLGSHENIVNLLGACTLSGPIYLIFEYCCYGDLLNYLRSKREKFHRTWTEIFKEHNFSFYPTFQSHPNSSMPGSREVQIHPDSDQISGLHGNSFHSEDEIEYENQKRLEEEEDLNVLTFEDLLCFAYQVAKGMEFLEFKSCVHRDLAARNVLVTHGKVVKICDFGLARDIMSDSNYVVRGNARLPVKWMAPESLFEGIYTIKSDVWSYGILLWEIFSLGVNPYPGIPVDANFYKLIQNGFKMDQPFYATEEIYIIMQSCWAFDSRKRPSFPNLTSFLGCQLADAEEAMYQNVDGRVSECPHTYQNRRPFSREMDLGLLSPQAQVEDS
- Assay method text: Competition binding assay, FLT3 Kd
- Measurement conditions: competition binding

Example molecules with recorded Kd:
In [3]: df
Out[3]:
                                   molecule    result
0  COc1ccc2ncn(Cc3ccc4nc(N[C@@H]5CCCC[C@H]5O)oc4c3)c2c1 [Example 152]  ≤ 200 nM
1  O[C@@H]1CCCC[C@H]1Nc1nc2ccc(Cn3cnc4cc(F)cnc43)cc2o1 [Example 132]  ≤ 200 nM

Go through the list and state Kd for each entry.
1. O[C@@H]1CCCC[C@H]1Nc1nc2ccc(Cn3cnc4cc(F)c(F)cc43)cc2s1 [Example 128]
2. O[C@@H]1CCCC[C@H]1Nc1nc2ccc(Cc3cnc4ccc(Cl)nn34)cc2s1 [Example 158]
3. O[C@@H]1[C@H](O)CCC[C@H]1Nc1nc2ccc(Cc3cnc4cc(-n5nccn5)ccn34)cc2s1 [Example 231]
4. O[C@H]1CCCC[C@H]1Nc1nc2ccc(Cn3cnc4cc(F)cnc43)cc2s1 [Example 162]
5. CC(=O)c1ccc2ncn(Cc3ccc4nc(N[C@@H]5CCCC[C@H]5O)sc4c3)c2c1 [Example 120]
6. O[C@@H]1CCCC[C@H]1Nc1nc2ccc(Cc3cnc4sccn34)cc2s1 [Example 157]

Outgoing:
> 5000 nM
200 to 1000 nM
1000 to 5000 nM
1000 to 5000 nM
1000 to 5000 nM
> 5000 nM

====

- Assay system: CSF1R (Homo sapiens)
- Sequence (P07333 20-972): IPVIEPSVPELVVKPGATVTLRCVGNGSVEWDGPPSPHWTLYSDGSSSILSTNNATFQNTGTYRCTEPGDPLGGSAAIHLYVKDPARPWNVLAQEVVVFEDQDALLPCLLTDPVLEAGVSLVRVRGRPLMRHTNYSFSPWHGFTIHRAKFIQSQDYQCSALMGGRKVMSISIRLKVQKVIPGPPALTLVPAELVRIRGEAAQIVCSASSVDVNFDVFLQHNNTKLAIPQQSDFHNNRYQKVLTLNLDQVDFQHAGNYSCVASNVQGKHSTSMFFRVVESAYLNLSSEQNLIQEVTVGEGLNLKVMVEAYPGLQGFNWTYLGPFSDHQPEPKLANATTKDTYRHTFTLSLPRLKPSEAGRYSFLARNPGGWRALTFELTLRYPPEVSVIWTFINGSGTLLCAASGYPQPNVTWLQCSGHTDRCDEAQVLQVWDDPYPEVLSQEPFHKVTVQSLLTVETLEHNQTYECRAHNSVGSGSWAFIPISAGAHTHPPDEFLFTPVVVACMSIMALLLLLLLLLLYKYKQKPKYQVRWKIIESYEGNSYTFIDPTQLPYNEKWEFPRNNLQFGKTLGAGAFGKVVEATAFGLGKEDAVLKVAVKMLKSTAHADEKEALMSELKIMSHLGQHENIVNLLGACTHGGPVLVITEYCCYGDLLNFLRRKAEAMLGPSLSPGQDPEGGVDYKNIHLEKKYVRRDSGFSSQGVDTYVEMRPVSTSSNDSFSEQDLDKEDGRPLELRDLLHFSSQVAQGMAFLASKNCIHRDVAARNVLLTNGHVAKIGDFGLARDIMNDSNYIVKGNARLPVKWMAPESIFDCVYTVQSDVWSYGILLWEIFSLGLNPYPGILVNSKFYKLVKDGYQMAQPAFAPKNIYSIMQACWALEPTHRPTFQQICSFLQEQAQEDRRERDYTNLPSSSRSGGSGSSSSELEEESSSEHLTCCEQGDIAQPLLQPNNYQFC
- Assay method text: Competition binding assay, CSF1R Kd
- Design: made in house
- Measurement conditions: competition binding
Quantity: Kd

Example compounds with recorded Kd:
>>> print(df.to_string())
                                   compound      result
0  C=Cc1cc(F)c2c(c1)ncn2Cc1ccc2nc(N[C@@H]3CCCC[C@H]3O)sc2c1 [Example 207]  5 to 20 nM
1  O[C@@H]1CCCC[C@H]1Nc1nc2ccc(Cn3cnc4cc(C5=CCCCC5)ccc43)cc2s1 [Example 184]  5 to 20 nM
2  O[C@@H]1CCCC[C@H]1Nc1nc2ccc(Cc3cnc4cc(-n5cccn5)ccn34)cc2s1 [Example 167]      ≤ 5 nM
3  Cc1cc(C)c2c(c1)ncn2Cc1ccc2nc(N[C@@H]3CCCC[C@H]3O)sc2c1 [Example 189]  5 to 20 nM
4  O[C@@H]1CCCC[C@H]1Nc1nc2ccc(Cn3cnc4cc(-n5cncn5)cnc43)cc2s1 [Example 145]      ≤ 5 nM

Go through the list and state Kd for each entry.
1. O[C@@H]1CCCC[C@H]1Nc1nc2c(Br)cc(Cn3cnc4cccnc43)cc2s1 [Example 166]
2. CNC(=O)c1ccc2c(c1)ncn2Cc1ccc2nc(N[C@@H]3CCCC[C@H]3O)sc2c1 [Example 173]

Outgoing:
1. 5 to 20 nM
2. 5 to 20 nM

Incoming: Quote Kd reported for O[C@H]1CCCCC1Nc1nc2ccc(Cn3cnc4cc(F)cnc43)cc2s1 (stereo in doubt) [Example 213] please.
Outgoing: ≤ 5 nM

====

- Assay system: KIT (Homo sapiens, UniProt P10721)
- Construct: made in house
- Sequence (P10721 26-976): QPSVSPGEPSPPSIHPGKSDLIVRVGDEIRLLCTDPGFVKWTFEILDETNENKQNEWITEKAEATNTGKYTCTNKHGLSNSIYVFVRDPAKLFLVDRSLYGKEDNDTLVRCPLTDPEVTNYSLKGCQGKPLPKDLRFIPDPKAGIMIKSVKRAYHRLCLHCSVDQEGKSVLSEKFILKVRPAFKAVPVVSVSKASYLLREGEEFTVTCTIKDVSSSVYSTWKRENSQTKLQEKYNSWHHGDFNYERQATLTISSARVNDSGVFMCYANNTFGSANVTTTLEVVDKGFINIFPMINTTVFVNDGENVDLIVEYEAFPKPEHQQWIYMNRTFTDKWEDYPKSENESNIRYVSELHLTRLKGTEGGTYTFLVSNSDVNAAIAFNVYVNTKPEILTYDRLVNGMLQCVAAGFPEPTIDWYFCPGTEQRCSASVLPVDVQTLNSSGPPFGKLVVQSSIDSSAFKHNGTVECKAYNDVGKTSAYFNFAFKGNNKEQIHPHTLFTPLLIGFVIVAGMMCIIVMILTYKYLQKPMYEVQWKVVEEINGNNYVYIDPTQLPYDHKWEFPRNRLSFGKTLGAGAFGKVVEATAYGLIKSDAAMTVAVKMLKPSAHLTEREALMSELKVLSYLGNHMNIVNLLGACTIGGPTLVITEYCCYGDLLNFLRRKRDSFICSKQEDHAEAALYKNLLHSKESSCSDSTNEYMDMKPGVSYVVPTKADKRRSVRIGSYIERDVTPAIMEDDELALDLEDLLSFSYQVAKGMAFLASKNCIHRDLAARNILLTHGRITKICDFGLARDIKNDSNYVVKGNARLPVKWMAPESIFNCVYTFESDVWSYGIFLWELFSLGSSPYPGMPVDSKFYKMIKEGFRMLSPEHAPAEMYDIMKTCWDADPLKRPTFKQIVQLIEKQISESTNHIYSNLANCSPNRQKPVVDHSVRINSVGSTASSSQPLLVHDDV
- Assay method text: Competition binding assay, KIT Kd
Quantity: Kd

Example compounds with recorded Kd:
In [3]: df
Out[3]:
                                   compound                        assay_system  quantity         result
0  O=C1CCCC[C@H]1Nc1nc2ccc(Cn3cnc4cccnc43)cc2s1  KIT (Homo sapiens, UniProt P10721)        Kd  100 to 500 nM
1  O[C@@H]1CCCC[C@H]1Nc1nc2ccc(Cn3cnc4ccc(Br)nc43)cc2s1  KIT (Homo sapiens, UniProt P10721)        Kd       ≤ 100 nM
2  CC(=O)NCc1cnc2c(c1)ncn2Cc1ccc2nc(N[C@@H]3CCCC[C@H]3O)sc2c1  KIT (Homo sapiens, UniProt P10721)        Kd      > 2000 nM

Go through the list and state Kd for each entry.
1. Cn1nnc(-c2cnc3c(c2)ncn3Cc2ccc3nc(N[C@@H]4CCCC[C@H]4O)sc3c2)n1
2. CS(=O)(=O)O.O[C@@H]1CCCC[C@H]1Nc1nc2ccc(Cn3cnc4cccnc43)cc2s1

Outgoing:
1. 100 to 500 nM
2. 100 to 500 nM
